# Test system: Candida albicans strain #40 fimbriae (enriched fimbriae EF, 66 kDa fimbrial subunit/adhesin protein)
# assayOverview: Inhibition of fimbriae binding to immobilized βGalNAc(1-4)βGal-BSA conjugate
# conditionDescription: plates coated with 10 μg/ml conjugate; read-out: Half-maximal inhibition of fimbriae binding to βGalNAc(1-4)βGal-BSA conjugate
# Method: Further experiments to determine the specificity of fimbrial binding to GSLs were carried out using a plate binding assay, as described above, but immobilizing on the plates a βGalNAc(1-4)βGal-BSA conjugate, synthesized from βGalNAc(1-4)βGal-O(CH2)8 COOCH3 (Sabesan and Lemieux), as described in Part B, above. […] Using this assay, it was first determined that fimbriae bind to the βGalNAc(1-4)βGal-BSA conjugate in a saturable, concentration-dependent manner. […]
measuredAttribute: IC50 (µM)
Numeric answer only, unit µM assumed.

Q: Quick one: IC50 for COC(=O)CCCCCCCCO[C@@H]1O[C@H](CO)[C@H](O[C@@H]2O[C@H](CO)[C@H](O)[C@H](O)[C@H]2NC(C)=O)[C@H](O)[C@H]1O [βGalNAc(1-4)βGal-methylester] ?
Result: 8.2
